Below, each of the molecules is paired with its reported IC50 value.
- System: HCC70 triple negative breast cancer cells
- EXPERIMENT_DESCRIPTION: Resazurin cytotoxicity assay, HCC70
- Assay type: cell-based
- PARTICULARS: Homo sapiens; HCC70 cells, 96 hours treatment, resazurin; read-out: HCC70 IC50 (μM) ± SD
Note: unit µM is implicit; provide only the numeric part.

Example cases with answers are listed next.
> print(dat)
                                   molecule  uom  observed.value
1  C=C1CC[C@@H]2C(=C)CC[C@H]3[C@@H](OC(=O)[C@H]3CN(CC)CC)[C@H]12 (relative stereo)   µM            1.48
2  C=C1CC[C@@H]2C(=C)CC[C@H]3[C@@H](OC(=O)[C@H]3CNCC)[C@H]12   µM            3.25

Inquiry: Please report the recorded IC50 for C=C1CC[C@@H]2C(=C)CC[C@H]3[C@@H](OC(=O)[C@H]3CNCCN)[C@H]12 [DHLC-4, 13-ethylenediamine dehydrocostus lactone] .
Reply text: 2.71

Inquiry: Continue with CC[C@@]1(O)C(=O)OCc2c1cc1n(c2=O)Cc2cc3ccccc3nc2-1 [Camptothecin, reference compound]
Reply text: 83.2

Inquiry: Continue with C=C1CC[C@@H]2C(=C)CC[C@H]3[C@@H](OC(=O)[C@H]3CN(C)C)[C@H]12
Reply text: 0.64

Inquiry: Continue with C=C1CC[C@H]2C(=C)CC[C@H]3C(=C)C(=O)O[C@@H]3[C@@H]12 [DHLC, Dehydrocostus lactone, reference compound]
Reply text: 1.11
